biological target: beta-klotho; test: cell-based or functional assay
One threshold, 60 nM, splits the recorded EC50, ELK-luciferase assay values: lower ones are YES, equal or higher ones are NO.

# binder, class
measured = [
    ("dually PEGylated FGF21 mutant K69C, G120C (ligand, 20 kDa methoxy-PEG-maleimide on Cys 69 and on Cys 120) MHPIPDSSPLLQFGGQVRQRYLYTDDAQQTEAHLEIREDGTVGGAADQSPESLLQLKALKPGVIQILGVCTSRFLCQRPDGALYGSLHFDPEACSFRELLLEDGYNVYQSEAHGLPLHLPCNKSPHRDPAPRGPARFLPLPGLPPAPPEPPGILAPQPPDVGSSDPLSMVGPSQGRSPSYAS", "NO"),
    ("dually PEGylated FGF21 mutant G120C, H125C (ligand, 20 kDa methoxy-PEG-maleimide on Cys 120 and on Cys 125) MHPIPDSSPLLQFGGQVRQRYLYTDDAQQTEAHLEIREDGTVGGAADQSPESLLQLKALKPGVIQILGVKTSRFLCQRPDGALYGSLHFDPEACSFRELLLEDGYNVYQSEAHGLPLHLPCNKSPCRDPAPRGPARFLPLPGLPPAPPEPPGILAPQPPDVGSSDPLSMVGPSQGRSPSYAS", "YES"),
    ("dually PEGylated FGF21 mutant E37C, G170C (ligand, 20 kDa methoxy-PEG-maleimide on Cys 37 and on Cys 170) MHPIPDSSPLLQFGGQVRQRYLYTDDAQQTEAHLEIRCDGTVGGAADQSPESLLQLKALKPGVIQILGVKTSRFLCQRPDGALYGSLHFDPEACSFRELLLEDGYNVYQSEAHGLPLHLPGNKSPHRDPAPRGPARFLPLPGLPPAPPEPPGILAPQPPDVGSSDPLSMVCPSQGRSPSYAS", "NO"),
    ("dually PEGylated FGF21 mutant R77C, G120C (ligand, 20 kDa methoxy-PEG-maleimide on Cys 77 and on Cys 120) MHPIPDSSPLLQFGGQVRQRYLYTDDAQQTEAHLEIREDGTVGGAADQSPESLLQLKALKPGVIQILGVKTSRFLCQCPDGALYGSLHFDPEACSFRELLLEDGYNVYQSEAHGLPLHLPCNKSPHRDPAPRGPARFLPLPGLPPAPPEPPGILAPQPPDVGSSDPLSMVGPSQGRSPSYAS", "YES"),
    ("dually PEGylated FGF21 mutant E37C, G120C (ligand, 20 kDa methoxy-PEG-maleimide on Cys 37 and on Cys 120) MHPIPDSSPLLQFGGQVRQRYLYTDDAQQTEAHLEIRCDGTVGGAADQSPESLLQLKALKPGVIQILGVKTSRFLCQRPDGALYGSLHFDPEACSFRELLLEDGYNVYQSEAHGLPLHLPCNKSPHRDPAPRGPARFLPLPGLPPAPPEPPGILAPQPPDVGSSDPLSMVGPSQGRSPSYAS", "YES"),
    ("dually PEGylated FGF21 mutant E37C, K69C (ligand, 20 kDa methoxy-PEG-maleimide on Cys 37 and on Cys 69) MHPIPDSSPLLQFGGQVRQRYLYTDDAQQTEAHLEIRCDGTVGGAADQSPESLLQLKALKPGVIQILGVCTSRFLCQRPDGALYGSLHFDPEACSFRELLLEDGYNVYQSEAHGLPLHLPGNKSPHRDPAPRGPARFLPLPGLPPAPPEPPGILAPQPPDVGSSDPLSMVGPSQGRSPSYAS", "NO"),
    ("dually PEGylated FGF21 mutant R77C, R175C (ligand, 20 kDa methoxy-PEG-maleimide on Cys 77 and on Cys 175) MHPIPDSSPLLQFGGQVRQRYLYTDDAQQTEAHLEIREDGTVGGAADQSPESLLQLKALKPGVIQILGVKTSRFLCQCPDGALYGSLHFDPEACSFRELLLEDGYNVYQSEAHGLPLHLPGNKSPHRDPAPRGPARFLPLPGLPPAPPEPPGILAPQPPDVGSSDPLSMVGPSQGCSPSYAS", "NO"),
    ("N-terminally PEGylated wild-type FGF21 (20 kDa PEG) (ligand, one 20 kDa PEG on the N-terminus (alpha-amino group)) MHPIPDSSPLLQFGGQVRQRYLYTDDAQQTEAHLEIREDGTVGGAADQSPESLLQLKALKPGVIQILGVKTSRFLCQRPDGALYGSLHFDPEACSFRELLLEDGYNVYQSEAHGLPLHLPGNKSPHRDPAPRGPARFLPLPGLPPAPPEPPGILAPQPPDVGSSDPLSMVGPSQGRSPSYAS", "YES"),
    ("dually PEGylated FGF21 mutant E37C, H125C (ligand, 20 kDa methoxy-PEG-maleimide on Cys 37 and on Cys 125) MHPIPDSSPLLQFGGQVRQRYLYTDDAQQTEAHLEIRCDGTVGGAADQSPESLLQLKALKPGVIQILGVKTSRFLCQRPDGALYGSLHFDPEACSFRELLLEDGYNVYQSEAHGLPLHLPGNKSPCRDPAPRGPARFLPLPGLPPAPPEPPGILAPQPPDVGSSDPLSMVGPSQGRSPSYAS", "NO"),
    ("dually PEGylated FGF21 mutant E91C, H125C (ligand, 20 kDa methoxy-PEG-maleimide on Cys 91 and on Cys 125) MHPIPDSSPLLQFGGQVRQRYLYTDDAQQTEAHLEIREDGTVGGAADQSPESLLQLKALKPGVIQILGVKTSRFLCQRPDGALYGSLHFDPCACSFRELLLEDGYNVYQSEAHGLPLHLPGNKSPCRDPAPRGPARFLPLPGLPPAPPEPPGILAPQPPDVGSSDPLSMVGPSQGRSPSYAS", "YES"),
    ("dually PEGylated FGF21 mutant K69C, R77C (ligand, 20 kDa methoxy-PEG-maleimide on Cys 69 and on Cys 77) MHPIPDSSPLLQFGGQVRQRYLYTDDAQQTEAHLEIREDGTVGGAADQSPESLLQLKALKPGVIQILGVCTSRFLCQCPDGALYGSLHFDPEACSFRELLLEDGYNVYQSEAHGLPLHLPGNKSPHRDPAPRGPARFLPLPGLPPAPPEPPGILAPQPPDVGSSDPLSMVGPSQGRSPSYAS", "NO"),
    ("wild-type FGF21 (mature, un-PEGylated) (ligand) MHPIPDSSPLLQFGGQVRQRYLYTDDAQQTEAHLEIREDGTVGGAADQSPESLLQLKALKPGVIQILGVKTSRFLCQRPDGALYGSLHFDPEACSFRELLLEDGYNVYQSEAHGLPLHLPGNKSPHRDPAPRGPARFLPLPGLPPAPPEPPGILAPQPPDVGSSDPLSMVGPSQGRSPSYAS", "YES"),
]
